Reference for the values: paper PMC10693628

- system tested: T1, Sumo-SiwR (Mycobacterium smegmatis, UniProt A0QS56 1-320)
- T1 sequence: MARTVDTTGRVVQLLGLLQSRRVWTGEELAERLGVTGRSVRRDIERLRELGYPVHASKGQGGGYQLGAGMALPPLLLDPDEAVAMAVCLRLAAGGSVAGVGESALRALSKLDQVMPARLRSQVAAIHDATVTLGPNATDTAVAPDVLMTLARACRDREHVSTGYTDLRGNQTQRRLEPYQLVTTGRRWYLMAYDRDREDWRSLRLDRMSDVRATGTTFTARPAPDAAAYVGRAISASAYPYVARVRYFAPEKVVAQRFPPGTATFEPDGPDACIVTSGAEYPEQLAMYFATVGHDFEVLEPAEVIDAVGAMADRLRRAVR
- method: fluorescence anisotropy; EMSA: 5 mM HEPES-KOH pH 7.0, 30 mM NaCl, 2.5% Ficoll 400K, 1% glycerol, 5 nM probe (10 nM in Fig. 2a legend), 37 °C 15 min; anisotropy: 5 mM HEPES-KOH pH 7, 30
- test settings: protein: recombinant; tags: His6-TEV-Sumo N-terminal fusion; chain copies: 2; label: 5'-FAM on strand 1; 12 bp duplex, 5' overhang 12 nt on strand 2
assay endpoint: Kd (nM)
Provide only the numeric value, understood in nM.

Exercise: Which Kd reading was recorded for the binder 5' tailed DNA (dsDNA) DNA 1: CGTCAGTCCAGT DNA 2: GTCAGCAGCCTAACTGGACTGACG ?
Solution: 306
